- Test system: MALME-3M melanoma
- ASSAY EXPLANATION: NCI tumour cell line growth inhibition, 48 h; in the data active = GI50 below about 0.43 µM; inactive = the rest
Outcomes: t for active, f for inactive

{"COMPOUND": "O=[N+]([O-])c1ccc2scc3c4ccccc4nc-3c2c1", "TARGET ENTITY": "MALME-3M melanoma", "DISCRETE LABEL": "f"}
{"COMPOUND": "CC1SC(c2ccc(Cl)c(Cl)c2)N(NC(=O)C(O)c2ccccc2)C1=O (stereo unspecified)", "TARGET ENTITY": "MALME-3M melanoma", "DISCRETE LABEL": "f"}
{"COMPOUND": "Cc1cc(I)cc(CN(C)CCN2CCOCC2)c1O", "TARGET ENTITY": "MALME-3M melanoma", "DISCRETE LABEL": "f"}
{"COMPOUND": "CCn1cc(C(=O)N/N=C/c2ccc(Br)cc2)c(=O)c2cc(F)c(N3CCNC(C)C3)c(F)c21 (stereo unspecified)", "TARGET ENTITY": "MALME-3M melanoma", "DISCRETE LABEL": "f"}
{"COMPOUND": "O=C(CNc1c(Cl)cccc1Cl)Nc1ccc(-c2nc3ccccc3s2)cc1", "TARGET ENTITY": "MALME-3M melanoma", "DISCRETE LABEL": "f"}
{"COMPOUND": "Cc1ccc(C)c(COc2cc(NC(=O)c3ccc4c(c3)OCO4)ccc2N(C)S(C)(=O)=O)c1", "TARGET ENTITY": "MALME-3M melanoma", "DISCRETE LABEL": "t"}

---

- Test system: A549 NSCLC
- ASSAY EXPLANATION: NCI tumour cell line growth inhibition, 48 h

{"COMPOUND": "Cc1n[nH]c(=O)n1-c1cccnc1", "TGI": "> 100 µM"}
{"COMPOUND": "C/C(CC(=O)Nc1ccc(C)c(C)c1)=N\\NC(N)=S", "TGI": "> 100 µM"}
{"COMPOUND": "CC(=O)NC1=C(C)C(=O)c2c(nc3n2CCC3OC(=O)CCl)C1=O (stereo not drawn)", "TGI": "26 µM"}
{"COMPOUND": "CSc1nc(=Nc2ccccc2)sn1-c1ccccc1", "TGI": "44 µM"}
{"COMPOUND": "Cn1nc(N)nc1N=S(C)(C)=N", "TGI": "> 100 µM"}
{"COMPOUND": "CN(C)CCNC(=O)c1cc([N+](=O)[O-])cn1C", "TGI": "> 100 µM"}
{"COMPOUND": "CO/C(N)=C(\\C#N)N=Cc1cccnc1", "TGI": "> 100 µM"}
{"COMPOUND": "O=C(O)CC1OCC=C2C[N+]3([O-])CCC45c6ccccc6NC4C1C2CC53 (stereo not drawn)", "TGI": "> 100 µM"}
{"COMPOUND": "CC(C)(C)OC(=O)NCCCCCCC(=O)Cc1ccccc1", "TGI": "> 100 µM"}
{"COMPOUND": "COc1cc(NC(=O)c2ccc(C(F)(F)F)nc2Nc2ccc(Cl)cc2C)cc(OC)c1OC", "TGI": "> 100 µM"}
{"COMPOUND": "CC(O)(CCCCCl)c1nc2ccccc2s1 (stereo not drawn)", "TGI": "> 100 µM"}
{"COMPOUND": "COC(=O)C(CCC1CC(OC)N(C(=O)OCc2ccccc2)C1)N=Cc1ccccc1 (stereo not drawn)", "TGI": "> 100 µM"}
{"COMPOUND": "O=c1[nH]nc(Cc2ccccc2)n1O", "TGI": "> 100 µM"}
{"COMPOUND": "COC(=O)C(=O)C(C(=O)OC)C(=O)C(=O)Nc1ccccc1C(N)=O (stereo not drawn)", "TGI": "> 100 µM"}
{"COMPOUND": "CC1=C[C@H](O)[C@@]2(C)[C@@H]([C@@H]1C)[C@H]1CC[C@@H]3[C@@]4(C)CC[C@H](O)C(C)(C)[C@@H]4CC[C@@]3(C)[C@]1(C)C[C@@H]2O", "TGI": "26.9 µM"}
{"COMPOUND": "CCOC(=O)/C=C(/OCC)[C@@H]1C(C(=O)c2ccc(Cl)cc2)[C@H]1/C(=C\\C(=O)OCC)OCC (stereo partly drawn)", "TGI": "> 100 µM"}
{"COMPOUND": "COc1ccc(-c2c(C#N)c(N)nc3c2COc2ccc(F)cc2-3)cc1OC", "TGI": "14.2 µM"}
{"COMPOUND": "O=C1CCC(C(=O)O)C2=C1CCCC2 (stereo not drawn)", "TGI": "> 100 µM"}
{"COMPOUND": "Clc1ccc2oc(CCC3CCCCC3)nc2c1", "TGI": "> 100 µM"}
{"COMPOUND": "COc1cc2c(cc1OCCCCCN1CCN(c3cc(=O)oc4ccccc34)CC1)N=C[C@@H]1CCCN1C2=O", "TGI": "11.5 µM"}
{"COMPOUND": "Oc1ccc(-c2cn3ccsc3n2)cc1O", "TGI": "> 100 µM"}
{"COMPOUND": "NC(Cc1c[nH]c2ccccc12)P(=O)(O)O (stereo not drawn)", "TGI": "> 100 µM"}
{"COMPOUND": "CCC1(O)C(=O)OCc2c1cc1n(c2=O)Cc2cc3ccc(CO)cc3nc2-1 (stereo not drawn)", "TGI": "> 100 µM"}

---

- Tested on: SNB-19 CNS
- ASSAY EXPLANATION: NCI tumour cell line growth inhibition, 48 h
*1 amine or outer side, *2 acyl side, *3 side chain or, on linkers, in order; H or OH if unused. Where a SMILES comes first, the peptide text is derived from it. Bridges are numbered along the chain shown (N, C = ends). [ ]: non-standard residue; d: D form. The star is where a group is joined. Phe(3,5-F2) = N[C@@H](Cc1cc(F)cc(F)c1)C(=O)O; Pro(4R-Me) = C[C@H]1CN[C@H](C(=O)O)C1; aThr = C[C@H](O)[C@H](N)C(=O)O; Pip = O=C(O)[C@@H]1CCCCN1; X10 = Fc1cc(C2CC2)ccc1N*; Abu = CC[C@H](N)C(=O)O; CO = O=C([*:1])[*:2]
MEASURE: TGI

{"COMPOUND": "O=C1C(c2ccccc2)=[N+]([O-])c2cc([N+](=O)[O-])c(/C(Cl)=C/c3ccccc3)cc21", "RESULT": "> 100 µM"}
{"COMPOUND": "O=c1c(C(=Nc2ccccc2)c2ccccc2)c[nH]n1-c1ccccc1", "RESULT": "> 100 µM"}
{"COMPOUND": "CC[C@@H]1NC(=O)[C@@H]2CCCCN2C(=O)[C@@H]2CCCN2C(=O)[C@@H](NC(=O)[C@H](Cc2cc(F)cc(F)c2)NC(=O)Nc2ccc(C3CC3)cc2F)[C@H](C)OC(=O)[C@@H]2C[C@@H](C)CN2C1=O ({X10-CO}-[Phe(3,5-F2)][aThr]P[Pip][Abu][Pro(4R-Me)]; ester 2-C)", "RESULT": "> 56.5 µM"}
{"COMPOUND": "O=C(CC(Cl)(Cl)C(Cl)(Cl)Cl)c1ccccc1", "RESULT": "39.2 µM"}
{"COMPOUND": "C[C@H]1CC[C@@H]2[C@@H](C)C[C@H]3[C@@H]4C(C)(C)OC(=O)[C@]4(C)C(=O)[C@@]23C1=O", "RESULT": "> 100 µM"}
{"COMPOUND": "CCOC(=O)N1C(=O)C2C3C=CC(C2C1=O)C1C2C(=O)N(C(=O)OCC)C(=O)C2C31 (stereo not drawn)", "RESULT": "> 100 µM"}
{"COMPOUND": "Nc1ccc2c(c1)Cc1ccccc1-2", "RESULT": "> 100 µM"}
{"COMPOUND": "SCCCSCCSCCCSCCS", "RESULT": "> 100 µM"}
